// values below are reported CC50 at 5 days
test: Test B: Cytotoxicity Assay; assay type: cell-based; settings: human, uninfected MT-4 cells, CellTiter-Glo
Hi! Could you send only the number? It should be in µM, unit omitted.

Some compounds with recorded CC50 at 5 days:
{"COMPOUND": "CN1CC(NC(C)(C)C#Cc2ccc(-c3ccc(Cl)c4c(NS(C)(=O)=O)nn(C)c34)c([C@H](Cc3cc(F)cc(F)c3)NC(=O)Cn3nc(C(F)(F)F)c4c3C(F)(F)[C@@H]3C[C@H]43)n2)C1 [Compound 42]", "UNIT_INFO": "µM", "QUANTITATIVE_READOUT": 2.77}
{"COMPOUND": "Cn1nc(NS(C)(=O)=O)c2c(Cl)ccc(-c3ccc(C#C[C@@H]4COC(=O)N4)nc3[C@H](Cc3cc(F)cc(F)c3)NC(=O)Cn3nc(C(F)F)c4c3C(F)(F)[C@@H]3C[C@H]43)c21 [Compound 97C]", "UNIT_INFO": "µM", "QUANTITATIVE_READOUT": 15.2}
{"COMPOUND": "Cn1nc(NS(C)(=O)=O)c2cccc(-c3ccc(C#CC4CCCCN4)nc3[C@H](Cc3cc(F)cc(F)c3)NC(=O)Cn3nc(C(F)(F)F)c4c3C(F)(F)[C@@H]3C[C@H]43)c21 (stereo partly drawn) [Compound 36B]", "UNIT_INFO": "µM", "QUANTITATIVE_READOUT": 6.57}
{"COMPOUND": "Cn1nc(NS(C)(=O)=O)c2c(Cl)ccc(-c3ccc(C#C[C@]4(C)CNCCO4)nc3[C@H](Cc3cc(F)cc(F)c3)NC(=O)Cn3nc(C(F)(F)F)c4c3C(F)(F)[C@@H]3C[C@H]43)c21 [Compound 83G]", "UNIT_INFO": "µM", "QUANTITATIVE_READOUT": 6.57}
{"COMPOUND": "Cn1nc(NS(C)(=O)=O)c2cccc(-c3ccc(C#CC4(C)COC4)nc3[C@H](Cc3cc(F)cc(F)c3)NC(=O)Cn3nc(C(F)(F)F)c4c3C(F)(F)[C@@H]3C[C@H]43)c21 [Compound 29]", "UNIT_INFO": "µM", "QUANTITATIVE_READOUT": 12.4}

Looking for the measured CC50 at 5 days of Cn1nc(NS(C)(=O)=O)c2c(Cl)ccc(-c3ccc(C#CC(C)(O)C4CC4)nc3[C@H](Cc3cc(F)cc(F)c3)NC(=O)Cn3nc(C(F)(F)F)c4c3C(F)(F)[C@@H]3C[C@H]43)c21 (stereo partly drawn) [Compound 59] , can you help?
10.2

# get_value(readout='CC50 at 5 days', item= CN1CCN(C(C)(C)C#Cc2ccc(-c3ccc(Cl)c4c(NS(C)(=O)=O)nn(C)c34)c([C@H](Cc3cc(F)cc(F)c3)NC(=O)Cn3nc(C(F)(F)F)c4c3C(F)(F)[C@@H]3C[C@H]43)n2)CC1 [Compound 41] )
2.08

###

test: Test B: Cytotoxicity Assay; assay type: cell-based; details: human, uninfected MT-4 cells, CellTiter-Glo
MEASURED_METRIC: CC50 at 5 days (µM)
Numeric only. Scale: µM

Sample records with CC50 at 5 days:
{"COMPOUND": "NC(=O)c1cc(-c2ccc(C#CC3(O)CCCC3)nc2[C@H](Cc2cc(F)cc(F)c2)NC(=O)Cn2nc(C(F)(F)F)c3c2C(F)(F)[C@@H]2C[C@H]32)ccc1F [Compound 15B]", "CC50 at 5 days (µM)": 3.02}
{"COMPOUND": "Cn1nc(NS(C)(=O)=O)c2c(Cl)ccc(-c3ccc(C#CC(C)(C)n4ccnc4)nc3[C@H](Cc3cc(F)cc(F)c3)NC(=O)Cn3nc(C(F)F)c4c3C(F)(F)[C@@H]3C[C@H]43)c21", "CC50 at 5 days (µM)": 20.9}
{"COMPOUND": "Cn1nc(NS(C)(=O)=O)c2c(Cl)ccc(-c3ccc(C#CC4(O)CCOC4)nc3[C@H](Cc3cc(F)cc(F)c3)NC(=O)Cn3nc(C(F)(F)F)c4c3C(F)(F)[C@@H]3C[C@H]43)c21 (some centres unmarked)", "CC50 at 5 days (µM)": 17.6}

CC50 at 5 days lookup needed for Cn1nc(NS(C)(=O)=O)c2c(Cl)ccc(-c3ccc(C#CC4(CO)CCCC4)nc3[C@H](Cc3cc(F)cc(F)c3)NC(=O)Cn3nc(C(F)(F)F)c4c3C(F)(F)[C@@H]3C[C@H]43)c21 [Compound 45B] , thanks.
7.35
